The measured values listed here are drawn from patent US20180148504A1.

- system name: T1, recombinant purified FRα (ECL assay calibrator) (human, UniProt P15328 25-234)
- T1 construct: Calibrator of the ECL sandwich assays; also called FRα calibrator; FRα standard
- T1 sequence (P15328 25-234 limits assumed): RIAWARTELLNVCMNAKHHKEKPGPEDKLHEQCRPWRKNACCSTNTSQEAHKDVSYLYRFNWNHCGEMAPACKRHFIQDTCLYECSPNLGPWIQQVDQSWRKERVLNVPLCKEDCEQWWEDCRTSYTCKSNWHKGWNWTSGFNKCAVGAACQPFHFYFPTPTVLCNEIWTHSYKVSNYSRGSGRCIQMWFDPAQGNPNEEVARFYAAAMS
- test details: ECL sandwich on FRα, signal to background; capture 26A9.C4; binder = detection Ab
endpoint: Average of S/B
Lab note: record the figure alone, no unit after it.

Example entries and their recorded answers appear below.
{"binder": "Monoclonal antibody 1A8.G11.E7 (antibody, mouse IgG1, V domains shown, Murine IgG1 kappa from hybridoma; also called ATCC PTA-123100) VH: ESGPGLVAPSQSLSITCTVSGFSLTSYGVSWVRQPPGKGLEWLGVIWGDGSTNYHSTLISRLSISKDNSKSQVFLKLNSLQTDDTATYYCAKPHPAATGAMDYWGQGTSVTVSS VL: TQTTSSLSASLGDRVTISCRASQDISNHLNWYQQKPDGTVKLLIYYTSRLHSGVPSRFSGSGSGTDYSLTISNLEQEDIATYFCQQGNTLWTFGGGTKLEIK", "Average of S/B": 1}
{"binder": "Monoclonal antibody 26A9.C4 (antibody, mouse IgG1, V domains shown, Murine IgG1 kappa from hybridoma; also called ATCC PTA-123092) VH: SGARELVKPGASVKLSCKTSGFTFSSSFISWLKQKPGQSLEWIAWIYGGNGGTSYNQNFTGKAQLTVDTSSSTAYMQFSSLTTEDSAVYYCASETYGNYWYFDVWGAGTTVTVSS VL: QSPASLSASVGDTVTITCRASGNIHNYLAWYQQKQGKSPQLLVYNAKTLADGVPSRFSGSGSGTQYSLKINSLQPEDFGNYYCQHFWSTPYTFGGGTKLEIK", "Average of S/B": 1}
{"binder": "Monoclonal antibody 19D4.B7 (antibody, mouse IgG2a, V domains shown, SULFO-TAG conjugated when used as detection antibody in the ECL assay; also called ATCC PTA-11884) VH: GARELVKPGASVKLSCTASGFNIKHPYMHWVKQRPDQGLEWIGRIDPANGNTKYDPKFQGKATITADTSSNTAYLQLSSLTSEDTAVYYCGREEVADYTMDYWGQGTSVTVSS VL: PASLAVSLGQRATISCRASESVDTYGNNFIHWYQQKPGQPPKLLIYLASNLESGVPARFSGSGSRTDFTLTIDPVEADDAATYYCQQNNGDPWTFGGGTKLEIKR", "Average of S/B": 34}
{"binder": "Monoclonal antibody 1D2.D8.G10 (antibody, mouse IgG1, V domains shown, Murine IgG1 kappa from hybridoma; also called 1D2.D8.G0; ATCC PTA-123098) VH: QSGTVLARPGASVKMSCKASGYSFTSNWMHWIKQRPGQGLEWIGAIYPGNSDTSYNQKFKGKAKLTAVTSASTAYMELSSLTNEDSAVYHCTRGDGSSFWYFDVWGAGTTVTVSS VL: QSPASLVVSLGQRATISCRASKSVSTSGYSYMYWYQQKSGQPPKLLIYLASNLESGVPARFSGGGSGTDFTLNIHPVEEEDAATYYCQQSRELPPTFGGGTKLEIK", "Average of S/B": 1}
{"binder": "Monoclonal antibody 24H8.F3 (antibody, mouse IgG1, V domains shown, Murine IgG1 kappa from hybridoma; also called ATCC PTA-123097) VH: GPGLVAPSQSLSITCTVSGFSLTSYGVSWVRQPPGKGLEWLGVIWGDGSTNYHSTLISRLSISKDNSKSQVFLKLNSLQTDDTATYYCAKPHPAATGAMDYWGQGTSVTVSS VL: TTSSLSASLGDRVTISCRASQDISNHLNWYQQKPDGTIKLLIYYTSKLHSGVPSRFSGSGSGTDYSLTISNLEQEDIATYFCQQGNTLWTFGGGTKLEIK", "Average of S/B": 1}

INPUT: Answer with the recorded Average of S/B for the binder listed here: Monoclonal antibody 24H8.D3 (antibody, mouse IgG1, V domains shown, Biotin-conjugated when used as capture antibody in the ECL assay; also called ATCC PTA-123090) VH: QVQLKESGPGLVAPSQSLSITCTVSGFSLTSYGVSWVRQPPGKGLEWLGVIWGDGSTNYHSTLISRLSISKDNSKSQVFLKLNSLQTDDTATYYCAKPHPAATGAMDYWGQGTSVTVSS VL: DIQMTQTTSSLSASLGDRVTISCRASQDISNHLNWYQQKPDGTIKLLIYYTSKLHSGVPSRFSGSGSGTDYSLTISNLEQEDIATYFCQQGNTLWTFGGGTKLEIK
OUTPUT: 1

INPUT: Answer with the recorded Average of S/B for the binder listed here: Monoclonal antibody 6A2.G7 (antibody, mouse IgG1, V domains shown, Murine IgG1 kappa from hybridoma; also called ATCC PTA-123093) VH: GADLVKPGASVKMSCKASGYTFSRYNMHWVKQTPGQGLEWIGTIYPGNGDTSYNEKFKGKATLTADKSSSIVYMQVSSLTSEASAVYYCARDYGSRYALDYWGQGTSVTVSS VL: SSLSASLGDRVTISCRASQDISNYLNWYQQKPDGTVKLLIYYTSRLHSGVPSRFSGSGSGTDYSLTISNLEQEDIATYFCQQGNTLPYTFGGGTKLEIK
OUTPUT: 4

INPUT: Answer with the recorded Average of S/B for the binder listed here: Monoclonal antibody 1C6.E12.G8 (antibody, mouse IgG1, V domains shown, Murine IgG1 kappa from hybridoma; also called ATCC PTA-123091) VH: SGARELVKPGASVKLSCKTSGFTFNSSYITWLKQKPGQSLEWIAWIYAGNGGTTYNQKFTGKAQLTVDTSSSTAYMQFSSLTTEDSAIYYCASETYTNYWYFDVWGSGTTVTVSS VL: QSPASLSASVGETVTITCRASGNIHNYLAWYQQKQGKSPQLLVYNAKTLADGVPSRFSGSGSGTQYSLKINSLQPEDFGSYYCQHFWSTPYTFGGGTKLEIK
OUTPUT: 1
